- System: P. falciparum female gametocytes
- experiment: P. falciparum Dual Gamete Formation Assay (PfDGFA), female readout (Pfs25-positive female gametes)
- Type: cell-based, Plasmodium falciparum NF54
- condition_label: 2µM, 24h preincubation with gametocytes prior to induction of gametogenesis; replicate R4
// label = satisfied if % inhibition female (individual replicates) R4 is not less than 20%, otherwise not satisfied

These solved cases illustrate the format of a correct answer.
CN(C)CCN(C)Cc1ccc(-c2ccc3c(Nc4ccc(F)cc4Cl)ccnc3c2)o1 [TCMDC-138447]    satisfied
CC(C)(C)Nc1cc(C2CC2)nc(-c2ccccn2)n1 [TCMDC-124453]    satisfied
COc1cc(C(=O)N2CCN(C(C)C)CC2)ccc1CN(C)CCCCN1CCN(c2cccc(Cl)c2Cl)CC1.Cl [TCMDC-136506]    not satisfied

Form field: % inhibition female (individual replicates) R4 at least 20%? Entry: Br.Oc1ccc(CCNCCCCCCNCCc2ccc(Cl)c3ccccc23)cc1O [TCMDC-131271]
satisfied

Form field: % inhibition female (individual replicates) R4 at least 20%? Entry: Cn1cc(CN2CCC(OC(c3ccccc3)c3ccc(Cl)cc3)CC2)cn1 (centres unmarked) [TCMDC-136165]
satisfied

Form field: % inhibition female (individual replicates) R4 at least 20%? Entry: CC(CCCC(=O)Nc1ccc(CC(C)NCCc2cccc(Cl)c2)cc1)NCCc1cccc(Cl)c1 (centres unmarked) [TCMDC-139798]
not satisfied

Form field: % inhibition female (individual replicates) R4 at least 20%? Entry: O=C(O)C(F)(F)F.O=S(=O)(NCCN1CCCC1)c1cccc(-c2ccc(CNC3Cc4ccccc4C3)cc2)c1 [TCMDC-132241]
not satisfied

Form field: % inhibition female (individual replicates) R4 at least 20%? Entry: COc1ccc(CNC2Cc3ccccc3C2)cc1-c1ccc(OC)c(S(=O)(=O)NCCN2CCCC2)c1.O=C(O)C(F)(F)F [TCMDC-132251]
satisfied

====

% inhibition female (individual replicates) R1 overview
- Test system: P. falciparum female gametocytes
- experiment: P. falciparum Dual Gamete Formation Assay (PfDGFA), female readout (Pfs25-positive female gametes)
- Format: cell-based, Plasmodium falciparum NF54
- condition_label: PfDGFA at 2µM, 24h preincubation with gametocytes prior to induction of gametogenesis; replicate R1
Output spec: scalar in %, unitless text.

Consider the reported % inhibition female (individual replicates) R1 for these compounds:
CCCn1cc2c(ccc3nc(N)nc(N)c32)n1    9.1
O=C(Nc1ccc([N+](=O)[O-])cc1)c1nn(-c2ccccc2)cc1/N=C/c1cccc(O)c1    7.8
CCN(C)C(=O)n1ncc2c3c(N)nc(N)nc3ccc21    0.36

Please tell me: % inhibition female (individual replicates) R1 of NC(=O)c1ccsc1NC(=O)CNC(c1ccccc1)c1ccc(Cl)cc1 (centres unmarked) , system P. falciparum female gametocytes?
0.32

Please tell me: % inhibition female (individual replicates) R1 of Cc1ccc2nc(C)cc(N/N=C/c3ccc([N+](=O)[O-])cc3)c2c1 , system P. falciparum female gametocytes?
9.6

====

- Test system: P. falciparum male gametocytes
- experiment: P. falciparum Dual Gamete Formation Assay (PfDGFA), male readout (exflagellation)
- Assay type: cell-based, Plasmodium falciparum NF54
- condition_label: Plasmodium falciparum; PfDGFA at 2µM, 24h preincubation with gametocytes; replicate R4; read-out: % inhibition male (individual replicates) R4
property_measured: inhibition at 2 µM (%)
Output spec: scalar in %, unitless text.

c1ccc2[nH]c(CN(Cc3nc4ccccc4[nH]3)Cc3nc4ccccc4[nH]3)nc2c1    85.2
COc1ccc(C[C@H](N)C(=O)N[C@H]2[C@@H](O)[C@H](n3cnc4c(N(C)C)ncnc43)O[C@@H]2CO)cc1    85.6
COc1cc(-c2nc(C(C)(C)CN)[nH]c2-c2ccncc2)ccc1Br.Cl    98.9
O=C(c1ccc(-c2cnc3[nH]cc(-c4ccc(C(=O)N5CCOCC5)cc4)c3c2)cc1)N1CCOCC1    50.2
CCc1cc2c(Sc3nnc(N)s3)ncnc2s1    84.9

Please tell me: inhibition at 2 µM of O=C(NC1CCN(Cc2ccccc2)CC1)c1cc(C(=O)NC2CCN(Cc3ccccc3)CC2)cc(C(=O)NC2CCN(Cc3ccccc3)CC2)c1 , system P. falciparum male gametocytes?
84.2

Please tell me: inhibition at 2 µM of COc1ccc2nc3cc(Cl)ccc3c(NCCCCNc3c4ccc(Cl)cc4nc4ccc(OC)cc34)c2c1 , system P. falciparum male gametocytes?
86.3
